# experimental-system: Cav3.2 channel (Homo sapiens)
# Construct: expressed in transfected cells; host or cells: HEK-293, tetracycline inducible expression system (Invitrogen)
# test: Whole-cell patch clamp of T-type Cav3.2 channel expressed in HEK293 cells
# Assay type: cell-based
# cond: Table 1; tested at at least 4 concentrations; read-out: IC50
assay-readout: IC50 (nM)
Numeric answer only, unit nM assumed.

Data request, read-out IC50, for CC(C)(C)NC(=O)CN1CCC2(CC1)CC2CNc1cc(Cl)cc(Cl)c1 (stereo not shown) [Example 93]
100

----------
# experimental-system: Cav3.2 channel (Homo sapiens, UniProt O95180)
# Construct: expressed in transfected cells; host or cells: HEK-293, tetracycline inducible expression system (Invitrogen)
# test: Whole-cell patch clamp of T-type Cav3.2 channel expressed in HEK293 cells
# Format: cell-based
# cond: Table 1; tested at at least 4 concentrations; read-out: IC50
# Description: Cav3.1, Cav3.2 or Cav3.3 channels were expressed in human embryonic kidney (HEK)-293 cells using a tetracycline inducible expression system (Invitrogen). […]
assay-readout: pIC50
pIC50 is a log-scale quantity: -log10 of the concentration expressed in molar.

>>> observed_measurement("O=C(NC1CC12CCN(CC(O)c1ccc(C(F)(F)F)cc1)CC2)c1cc(Cl)cc(Cl)c1 (stereo not shown)")
7.15
>>> observed_measurement("CC(C)(C)NC(=O)CN1CCC2(CC1)CC2C(=O)Nc1cc(Cl)cc(Cl)c1 (stereo not shown)")
6.89

Data request, read-out pIC50, for CC(C)(C)NC(=O)CN1CCC2(CC1)CC2NC(=O)c1ccc(Cl)c(Cl)c1 (stereo not shown)
7.10

Data request, read-out pIC50, for CC(C)(C)NC(=O)CN1CCC2(CC1)CC2NC(=O)c1cc(F)cc(Cl)c1 (single isomer, unassigned) [Example 128]
6.96

----------
# Tested on: DRG ion channels Na+
# test: Sodium currents in DRG neurons, patch clamp
# Assay type: cell-based, rodent
# cond: Table 2
Below is a list of entries, each paired with its recorded IC50 value.

Please review the entries below; each comes with its answer.
>>> observed_measurement("CC(C)(C)NC(=O)CN1CCC2(CC1)CC2C(=O)Nc1cc(F)cc(C(F)(F)F)c1 (stereo not shown)")
"> 30 µM"
>>> observed_measurement("CC(C)(C)NC(=O)CN1CCC2(CC1)C[C@H]2NC(=O)c1cc(F)cc(Cl)c1 (single isomer, unassigned)")
"> 100 µM"
>>> observed_measurement("CC(C)(C)NC(=O)CN1CCC(CNC(=O)c2cc(F)cc(Cl)c2)CC1 [Z944, reference compound]")
"> 30 µM"
>>> observed_measurement("CC(C)(C)NC(=O)CN1CCC2(CC1)CC2NC(=O)c1cc(F)cc(Cl)c1 (stereo not shown) [Example 17]")
"> 100 µM"
>>> observed_measurement("CC(C)(C)CCN1CCC2(CC1)C[C@H]2NC(=O)c1cc(C(F)(F)F)cc(C(F)(F)F)c1 (single isomer, unassigned)")
"8.7 µM"

Please provide the recorded IC50 for CC(C)(C)NC(=O)CN1CCC2(CC1)C[C@H]2NC(=O)c1cc(C(F)(F)F)cc(C(F)(F)F)c1 (single isomer, unassigned) , tested on DRG ion channels Na+.
34.4 µM

Please provide the recorded IC50 for CC(C)(C)NC(=O)CN1CCC2(CC1)CC2NC(=O)c1cc(F)cc(Cl)c1 (single isomer, unassigned) [Example 128] , tested on DRG ion channels Na+.
> 100 µM

----------
Below is a list of entries, each paired with its recorded IC50 value.
# experimental-system: hERG channel (Homo sapiens, UniProt Q12809)
# Construct: expressed in transfected cells; host or cells: CHO
# Sequence (Q12809 whole entry): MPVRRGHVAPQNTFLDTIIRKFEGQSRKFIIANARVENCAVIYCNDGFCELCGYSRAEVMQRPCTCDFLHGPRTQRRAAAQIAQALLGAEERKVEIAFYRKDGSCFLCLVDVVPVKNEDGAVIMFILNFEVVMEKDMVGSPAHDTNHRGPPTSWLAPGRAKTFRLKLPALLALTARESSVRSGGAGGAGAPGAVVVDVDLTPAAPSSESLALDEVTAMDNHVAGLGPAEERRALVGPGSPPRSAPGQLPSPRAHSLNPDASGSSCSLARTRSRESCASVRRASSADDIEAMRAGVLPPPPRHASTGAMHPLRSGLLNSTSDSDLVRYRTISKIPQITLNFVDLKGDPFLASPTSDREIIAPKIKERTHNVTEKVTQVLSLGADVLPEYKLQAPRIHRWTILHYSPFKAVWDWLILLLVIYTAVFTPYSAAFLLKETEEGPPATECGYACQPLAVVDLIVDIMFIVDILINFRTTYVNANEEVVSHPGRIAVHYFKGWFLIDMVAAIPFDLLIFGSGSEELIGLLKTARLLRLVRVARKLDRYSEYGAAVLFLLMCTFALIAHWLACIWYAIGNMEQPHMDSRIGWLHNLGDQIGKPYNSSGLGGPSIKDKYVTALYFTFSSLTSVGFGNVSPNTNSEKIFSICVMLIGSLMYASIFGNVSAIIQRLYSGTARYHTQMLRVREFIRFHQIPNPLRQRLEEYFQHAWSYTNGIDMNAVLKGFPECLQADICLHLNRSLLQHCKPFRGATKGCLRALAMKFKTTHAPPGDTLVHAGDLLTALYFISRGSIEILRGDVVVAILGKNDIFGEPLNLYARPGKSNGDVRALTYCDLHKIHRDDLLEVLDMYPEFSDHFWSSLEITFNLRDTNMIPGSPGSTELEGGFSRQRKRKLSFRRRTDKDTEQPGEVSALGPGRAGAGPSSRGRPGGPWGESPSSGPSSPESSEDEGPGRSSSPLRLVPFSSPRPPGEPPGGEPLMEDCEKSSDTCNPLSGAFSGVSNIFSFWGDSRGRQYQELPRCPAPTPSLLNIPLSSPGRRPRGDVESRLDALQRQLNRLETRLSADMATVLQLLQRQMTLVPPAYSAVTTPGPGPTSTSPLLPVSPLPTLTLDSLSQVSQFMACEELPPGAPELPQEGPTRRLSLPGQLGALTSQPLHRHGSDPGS
# test: hERG patch clamp in hERG-expressing CHO cells
# Format: cell-based
# Method: Sodium and potassium channels in the rodent DRG neurons were recorded and tested as described above. […] Whole-cell patch clamp electrophysiology is employed to test compounds and a positive control compound. […] The hERG potassium currents are recorded under a holding potential of −80 mV and then depolarized to 40 mV for 2.5 seconds to activate the hERG channel. […]
Numeric answer only, unit µM assumed.

Please review the entries below; each comes with its answer.
>>> observed_measurement("CC(C)(C)CCN1CCC2(CC1)CC2NC(=O)c1cc(F)cc(Cl)c1 (stereo not drawn) [Example 28]")
3.6
>>> observed_measurement("CC(C)(C)NC(=O)CN1CCC2(CC1)CC2NC(=O)c1cc(F)cc(Cl)c1 (stereo not drawn) [Example 17]")
10.7

Moving on to another compound below.
Please provide the recorded IC50 for CC(C)(C)NC(=O)CN1CCC2(CC1)CC2NC(=O)c1cc(F)cc(Cl)c1 (single isomer, unassigned) [Example 128] , tested on hERG channel (Homo sapiens, UniProt Q12809).
7

----------
# test: Metabolic stability in human liver microsomes
# Type: in vitro ADME
# cond: read-out: Human Liver Microsomes Clint (μL/min/mg protein)
assay-readout: microsomal CLint (µL/min/mg)
Numeric answer only, unit µL/min/mg assumed.

>>> observed_measurement("CC(C)(C)CCN1C[C@@H]2[C@@H](CNC(=O)c3cc(Cl)cc(Cl)c3)[C@@H]2C1 [ML218, reference compound]")
1.1

Moving on to another compound below.
Data request, read-out microsomal CLint, for CC(C)(C)NC(=O)CN1CCC(CNC(=O)c2cc(F)cc(Cl)c2)CC1 [Z944, reference compound]
5.5

----------
Below is a list of entries, each paired with its recorded IC50 value.
# experimental-system: Cav3.1 (Homo sapiens, UniProt O43497)
# Sequence (O43497 whole entry): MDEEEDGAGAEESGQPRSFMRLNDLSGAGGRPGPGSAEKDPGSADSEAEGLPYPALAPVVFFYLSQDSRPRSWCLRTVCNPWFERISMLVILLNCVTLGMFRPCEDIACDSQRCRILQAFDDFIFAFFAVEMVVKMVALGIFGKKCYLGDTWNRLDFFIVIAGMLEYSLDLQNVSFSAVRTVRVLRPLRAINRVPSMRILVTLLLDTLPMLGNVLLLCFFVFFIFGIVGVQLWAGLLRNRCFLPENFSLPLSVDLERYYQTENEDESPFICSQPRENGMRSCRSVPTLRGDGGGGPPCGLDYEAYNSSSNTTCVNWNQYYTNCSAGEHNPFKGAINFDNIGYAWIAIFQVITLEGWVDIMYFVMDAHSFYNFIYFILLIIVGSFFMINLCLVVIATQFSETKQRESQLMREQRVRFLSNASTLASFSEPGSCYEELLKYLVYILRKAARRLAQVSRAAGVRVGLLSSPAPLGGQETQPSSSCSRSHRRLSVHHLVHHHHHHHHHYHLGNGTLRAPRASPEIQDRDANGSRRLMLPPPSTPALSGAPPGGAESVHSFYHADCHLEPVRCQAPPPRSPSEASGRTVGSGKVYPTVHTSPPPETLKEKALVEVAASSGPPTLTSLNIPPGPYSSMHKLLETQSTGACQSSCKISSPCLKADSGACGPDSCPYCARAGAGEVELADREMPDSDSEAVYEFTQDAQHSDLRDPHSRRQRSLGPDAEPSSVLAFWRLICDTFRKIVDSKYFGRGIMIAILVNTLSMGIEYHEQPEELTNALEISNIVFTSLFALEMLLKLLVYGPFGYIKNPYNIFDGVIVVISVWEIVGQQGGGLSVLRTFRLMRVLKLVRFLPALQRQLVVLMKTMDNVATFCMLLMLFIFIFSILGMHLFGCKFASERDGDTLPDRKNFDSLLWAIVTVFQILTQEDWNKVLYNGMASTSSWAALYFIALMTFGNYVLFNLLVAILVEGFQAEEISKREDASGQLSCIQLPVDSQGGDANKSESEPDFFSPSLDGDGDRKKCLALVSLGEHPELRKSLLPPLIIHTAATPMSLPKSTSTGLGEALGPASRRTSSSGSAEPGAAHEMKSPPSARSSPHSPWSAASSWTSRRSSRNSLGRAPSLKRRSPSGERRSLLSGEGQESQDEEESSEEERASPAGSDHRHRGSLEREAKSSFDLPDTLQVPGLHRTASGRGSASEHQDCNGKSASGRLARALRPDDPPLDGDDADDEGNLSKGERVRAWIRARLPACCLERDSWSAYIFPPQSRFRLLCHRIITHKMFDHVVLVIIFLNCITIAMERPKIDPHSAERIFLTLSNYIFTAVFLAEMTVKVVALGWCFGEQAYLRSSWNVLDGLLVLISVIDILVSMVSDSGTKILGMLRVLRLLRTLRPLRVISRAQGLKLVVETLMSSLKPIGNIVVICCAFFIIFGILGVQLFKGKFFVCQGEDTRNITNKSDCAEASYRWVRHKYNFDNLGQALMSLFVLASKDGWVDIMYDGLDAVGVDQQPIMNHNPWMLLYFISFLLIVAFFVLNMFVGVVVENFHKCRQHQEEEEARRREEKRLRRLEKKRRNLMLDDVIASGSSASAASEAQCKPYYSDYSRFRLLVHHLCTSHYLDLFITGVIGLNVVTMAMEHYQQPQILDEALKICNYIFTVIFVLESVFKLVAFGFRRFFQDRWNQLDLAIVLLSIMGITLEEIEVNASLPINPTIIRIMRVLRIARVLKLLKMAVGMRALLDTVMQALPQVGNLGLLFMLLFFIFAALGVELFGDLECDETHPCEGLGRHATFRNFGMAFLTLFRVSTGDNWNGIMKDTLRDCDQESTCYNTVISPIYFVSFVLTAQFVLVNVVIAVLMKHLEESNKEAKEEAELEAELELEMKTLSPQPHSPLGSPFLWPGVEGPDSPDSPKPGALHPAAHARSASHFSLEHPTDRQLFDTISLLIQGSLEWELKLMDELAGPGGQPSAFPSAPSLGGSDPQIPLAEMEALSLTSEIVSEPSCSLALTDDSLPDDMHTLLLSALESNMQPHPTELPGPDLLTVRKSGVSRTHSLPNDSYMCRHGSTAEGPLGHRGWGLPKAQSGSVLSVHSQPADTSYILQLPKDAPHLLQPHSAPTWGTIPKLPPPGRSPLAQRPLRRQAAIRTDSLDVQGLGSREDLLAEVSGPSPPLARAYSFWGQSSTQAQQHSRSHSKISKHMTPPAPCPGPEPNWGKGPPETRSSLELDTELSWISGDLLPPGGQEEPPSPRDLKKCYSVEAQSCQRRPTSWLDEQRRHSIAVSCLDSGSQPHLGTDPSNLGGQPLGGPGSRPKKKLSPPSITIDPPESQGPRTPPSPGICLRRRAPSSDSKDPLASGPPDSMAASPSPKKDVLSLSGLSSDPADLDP
# test: Whole-cell patch clamp of T-type Cav3.1 channel expressed in HEK293 cells
# cond: Table 2
Numeric answer only, unit nM assumed.

>>> observed_measurement("CC(C)(C)CCN1C[C@@H]2[C@@H](CNC(=O)c3cc(Cl)cc(Cl)c3)[C@@H]2C1 [ML218, reference compound]")
140

Data request, read-out IC50, for CC(C)(C)CCN1CCC2(CC1)C[C@H]2NC(=O)c1cc(C(F)(F)F)ccc1Cl (single isomer, unassigned)
2410

Data request, read-out IC50, for CC(C)(C)NC(=O)CN1CCC2(CC1)C[C@H]2C(=O)Nc1cc(C(F)(F)F)cc(C(F)(F)F)c1 (single isomer, unassigned)
120

----------
# experimental-system: Cav2.2 (N-type Ca channel) (Homo sapiens, UniProt Q00975)
# test: Patch clamp of Cav2.2 N-type Ca channel
# cond: Table 2
Below is a list of entries, each paired with its recorded IC50 value.
Numeric answer only, unit µM assumed.

>>> observed_measurement("CC(C)(C)NC(=O)CN1CCC2(CC1)CC2C(=O)Nc1cc(F)cc(C(F)(F)F)c1 (centres unmarked)")
5.1
>>> observed_measurement("CC(C)(C)CCN1C[C@@H]2[C@@H](CNC(=O)c3cc(Cl)cc(Cl)c3)[C@@H]2C1 [ML218, reference compound]")
20.7
>>> observed_measurement("CC(C)(C)NC(=O)CN1CCC2(CC1)C[C@H]2NC(=O)C12CC3CC(CC(C3)C1)C2 (single isomer, unassigned)")
15.6
>>> observed_measurement("CC(C)(C)NC(=O)CN1CCC2(CC1)C[C@H]2NC(=O)c1cc(C(F)(F)F)cc(C(F)(F)F)c1 (single isomer, unassigned)")
12.3

Data request, read-out IC50, for CC(C)(C)CCN1CCC2(CC1)C[C@H]2NC(=O)c1cc(C(F)(F)F)ccc1Cl (single isomer, unassigned)
5.6

Data request, read-out IC50, for CC(C)(C)CCN1CCC2(CC1)C[C@H]2NC(=O)c1cc(C(F)(F)F)cc(C(F)(F)F)c1 (single isomer, unassigned)
2.5

Data request, read-out IC50, for CC(C)(C)NC(=O)CN1CCC2(CC1)C[C@H]2C(=O)Nc1cc(C(F)(F)F)cc(C(F)(F)F)c1 (single isomer, unassigned)
3.1

Data request, read-out IC50, for CC(C)(C)CCN1CCC2(CC1)CC2NC(=O)c1cc(F)cc(Cl)c1 (centres unmarked)
9.4

----------
Below is a list of entries, each paired with its recorded pIC50 value.
# experimental-system: Cav3.2 channel (Homo sapiens)
# Construct: expressed in transfected cells; host or cells: HEK-293, tetracycline inducible expression system (Invitrogen)
# test: Whole-cell patch clamp of T-type Cav3.2 channel expressed in HEK293 cells
# Assay type: cell-based
# cond: Table 2; read-out: Cav3.2 IC50
pIC50 is a log-scale quantity: -log10 of the concentration expressed in molar.

>>> observed_measurement("CC(C)(C)NC(=O)CN1CCC2(CC1)C[C@H]2NC(=O)c1cc(F)cc(Cl)c1 (single isomer, unassigned)")
6.06
>>> observed_measurement("CC(C)(C)CCN1CCC2(CC1)CC2NC(=O)c1cc(F)cc(Cl)c1 (stereo not shown)")
7.15
>>> observed_measurement("CC(C)(C)NC(=O)CN1CCC2(CC1)C[C@H]2NC(=O)c1cc(C(F)(F)F)cc(C(F)(F)F)c1 (single isomer, unassigned)")
7.10

Please provide the recorded pIC50 for CC(C)(C)NC(=O)CN1CCC2(CC1)C[C@H]2NC(=O)c1cc(Cl)cc(Cl)c1 (single isomer, unassigned) , tested on Cav3.2 channel (Homo sapiens).
7.22
